// reported herbicidal effect ALOMY per item
Test system: Alopecurus myosuroides (ALOMY)
ASSAY NAME: Herbicidal post-emergence action (D), 320 g/ha
Type: in vivo
COND: ca. 3 weeks
Please respond with the number in % and leave the unit unwritten.

MOLECULE | MEASUREMENT KIND | RECORDED RESULT
CCc1cc2scnc2nc1-c1ccccc1F | herbicidal effect ALOMY | 90
Fc1cccc(F)c1-c1nc2ncsc2cc1Cl | herbicidal effect ALOMY | 90
Clc1cc2scnc2nc1-c1sccc1Cl | herbicidal effect ALOMY | 90
Cc1cc2scnc2nc1-c1cccc(F)c1 | herbicidal effect ALOMY | 90
Cc1cc2scnc2nc1C12CCCCC1O2 (stereo not drawn) | herbicidal effect ALOMY | 80

Input: Report value only: herbicidal effect ALOMY, Alopecurus myosuroides (ALOMY), `Cc1cc2scnc2nc1-c1sccc1C`
Output: 90

###

Listing: herbicidal effect KCHSC of selected compounds
Tested on: Kochia scoparia (KCHSC; Bassia scoparia)
ASSAY NAME: Herbicidal post-emergence action (B), 1280 g/ha
Assay type: in vivo
State just the number; it will be interpreted in %.

Input: Provide only the value of recorded herbicidal effect KCHSC for `Cc1cc2sc(S)nc2nc1-c1ccccc1Cl`
Output: 90

Input: Hello, please tell me recorded herbicidal effect KCHSC for this one: `Cc1cccc(F)c1-c1nc2ncsc2cc1Cl`
Output: 100

Input: Return the recorded herbicidal effect KCHSC value; entry: Cc1cc2sc([S+](C)[O-])nc2nc1-c1cccc(F)c1 (stereo not shown)
Output: 90

Input: # return recorded herbicidal effect KCHSC for entry `CCc1cc2sc(S)nc2nc1-c1ccccc1`
Output: 90

Input: State its herbicidal effect KCHSC for this compound: `Fc1cc(F)c(-c2nc3ncsc3cc2Cl)c(F)c1`
Output: 90

Input: Note herbicidal effect KCHSC for the compound shown: `Cc1cc2scnc2nc1-c1sccc1Cl`
Output: 90

###

System: Kochia scoparia (KCHSC; Bassia scoparia)
ASSAY NAME: Herbicidal post-emergence action (B), 1280 g/ha
Type: in vivo
MEASUREMENT KIND: herbicidal effect KCHSC (%)
State just the number; it will be interpreted in %.

INPUT SMILES | EXPERIMENTAL SYSTEM | herbicidal effect KCHSC, %
COc1ccccc1-c1nc2ncsc2cc1C | Kochia scoparia (KCHSC; Bassia scoparia) | 100
NC(=O)c1nc2nc(-c3ccccc3F)c(Br)cc2s1 | Kochia scoparia (KCHSC; Bassia scoparia) | 90
Fc1ccccc1-c1nc2ncsc2cc1I | Kochia scoparia (KCHSC; Bassia scoparia) | 90
CCc1cc2scnc2nc1-c1ccc(F)cc1F | Kochia scoparia (KCHSC; Bassia scoparia) | 100
Cc1cc2scnc2nc1-c1ccc(F)cc1F | Kochia scoparia (KCHSC; Bassia scoparia) | 100

Input: Annotate the molecule `Cc1cc2scnc2nc1-c1cccnc1C` with its measured herbicidal effect KCHSC.
Output: 90

Input: Give a short answer stating reported herbicidal effect KCHSC for `CCc1cc2sc(S)nc2nc1-c1ccccc1F` .
Output: 90

Input: Name the recorded herbicidal effect KCHSC of the molecule listed here: `Cc1cc2scnc2nc1-c1sccc1C`
Output: 100

Input: For `CCc1cc2scnc2nc1C1=CCCCC1` , write its herbicidal effect KCHSC.
Output: 90

Input: Hello, please tell me recorded herbicidal effect KCHSC for this one: `Clc1cc2scnc2nc1-c1ccsc1`
Output: 90

Input: Return reported herbicidal effect KCHSC. Input molecule: `N#CCc1nc2nc(-c3ccccc3F)c(Br)cc2s1`
Output: 90

###

Tested on: Poa annua (POAAN)
ASSAY NAME: Herbicidal post-emergence action (B), 1280 g/ha
Format: in vivo
COND: rated visually after about 3 weeks vs untreated controls
# herbicidal activity POAAN listing for each entry below
The reply must contain the numeric value and, after it, the unit.

COMPOUND | MEASUREMENT KIND | RECORDED RESULT
Fc1ccccc1-c1ccc2scnc2n1 [Example I-036] | herbicidal activity POAAN | 100%
Cc1cc2scnc2nc1-c1ccccc1 [Example I-041] | herbicidal activity POAAN | 100%

Input: Given Fc1ccccc1-c1nc2ncsc2cc1I [Example I-188] , respond with its herbicidal activity POAAN.
Output: 90%

Input: Provide herbicidal activity POAAN value for the following compound: Clc1cc2scnc2nc1-c1sccc1Cl [Example I-189]
Output: 90%

Input: Tell me its herbicidal activity POAAN given Cc1cc(C)c(-c2nc3ncsc3cc2C)s1 [Example I-195] as the entry.
Output: 100%

Input: Kindly indicate its recorded herbicidal activity POAAN. Item: CCc1cc2scnc2nc1-c1ccccc1 [Example I-051]
Output: 100%

Input: Using known records, supply herbicidal activity POAAN for COc1ccccc1-c1nc2ncsc2cc1C [Example I-124]
Output: 100%

Input: Output measured herbicidal activity POAAN for this item: Cc1cc2scnc2nc1-c1sccc1C [Example I-143]
Output: 100%

Input: Tell me herbicidal activity POAAN reported for CC(C)c1cc2scnc2nc1-c1ccccc1F [Example I-184]
Output: 90%

Input: Please look at this compound and report its herbicidal activity POAAN: Cc1cc2scnc2nc1-c1cccc(F)c1 [Example I-003]
Output: 100%

Input: Dear colleague, please send me the reported herbicidal activity POAAN for Fc1cc(F)c(-c2nc3ncsc3cc2Cl)c(F)c1 [Example I-035] when you can.
Output: 90%

Input: For Cc1sccc1-c1nc2ncsc2cc1Br [Example I-135] , write its herbicidal activity POAAN.
Output: 90%

Input: Retrieve herbicidal activity POAAN measured for Cc1cc2sc(S(C)(=O)=O)nc2nc1-c1ccccc1F [Example I-021] and print it.
Output: 100%

Input: Give recorded herbicidal activity POAAN. Cc1ccsc1-c1nc2ncsc2cc1Br [Example I-132]
Output: 90%

Input: Output measured herbicidal activity POAAN for this item: CCc1cc2scnc2nc1-c1ccccc1C(F)(F)F [Example I-049]
Output: 100%

Input: Report herbicidal activity POAAN for Fc1cccc(-c2ccc3scnc3n2)c1 [Example I-118]
Output: 100%

###

Measured herbicidal effect ALOMY of individual entries
Tested on: Alopecurus myosuroides (ALOMY)
ASSAY NAME: Herbicidal pre-emergence action (C), 320 g/ha
Assay type: in vivo
COND: ca. 3 weeks
Dear colleague, please return just the value in %, with no unit written.

# annotated cases, reported herbicidal effect ALOMY shown
INPUT SMILES | RECORDED RESULT
CCc1cc2scnc2nc1-c1cccc(F)c1 | 100
Cc1cc2scnc2nc1-c1ccccc1 | 100
Fc1ccccc1-c1nc2ncsc2cc1Cl | 100
Cc1cscc1-c1nc2ncsc2cc1C | 100
CCc1cc2scnc2nc1-c1ccc(F)cc1F | 100

Now let's try a different one.
Input: Note down herbicidal effect ALOMY recorded for `CCc1cc2scnc2nc1-c1ccccc1`
Output: 100

###

System: Setaria viridis (SETVI)
ASSAY NAME: Herbicidal pre-emergence action (A), 1280 g/ha
Type: in vivo
COND: visual grading after ca. 3 weeks vs untreated controls
MEASUREMENT KIND: herbicidal effect SETVI (%)
Quick note: give the figure in %, leave out the unit.

INPUT SMILES | EXPERIMENTAL SYSTEM | MEASUREMENT KIND | UNIT DESCRIPTOR | RECORDED RESULT
Clc1ccccc1-c1nc2ncsc2cc1Cl | Setaria viridis (SETVI) | herbicidal effect SETVI | % | 100

Input: Return herbicidal effect SETVI for the following compound: `CCc1cc2sc(OC)nc2nc1-c1ccccc1C`
Output: 100

Input: Tell us which herbicidal effect SETVI value is on record for `Cc1cscc1-c1nc2ncsc2cc1Br`
Output: 100

Input: Given the compound `Cc1ccccc1-c1ccc2scnc2n1` , write its reported herbicidal effect SETVI.
Output: 100

Input: State, in one line, measured herbicidal effect SETVI of `Cc1cc2sc(S)nc2nc1-c1cccc(F)c1`
Output: 90

Input: Let me know recorded herbicidal effect SETVI for `Cc1cc2scnc2nc1-c1scnc1C` , thanks.
Output: 100

###

Below: a set of entries, each annotated with reported herbicidal activity SETVI.
Test system: Setaria viridis (SETVI)
ASSAY NAME: Herbicidal post-emergence action (B), 1280 g/ha
Type: in vivo
COND: rated visually after about 3 weeks vs untreated controls
Please state the figure in %; there is no need to write the unit.

Completed entries (count: 4):
MOLECULE | herbicidal activity SETVI / %
Cc1nc2nc(-c3ccccc3F)c(C)cc2s1 [Example I-001] | 90
CCc1cc2scnc2nc1-c1ccccc1C [Example I-093] | 100
Fc1cccc(-c2nc3ncsc3cc2Cl)c1F [Example I-114] | 90
CCc1cc2scnc2nc1-c1ccc(F)cc1F [Example I-030] | 90

Here's the next entry for you.
Input: Look up herbicidal activity SETVI of Clc1ccccc1-c1nc2ncsc2cc1Cl [Example I-069] and report it.
Output: 90
